These measurements were taken from paper PMC11369174.

# system-under-test: T1, Ras-GTPase-activating protein-binding protein 2 (G3BP2) NTF2 domain (human, UniProt Q9UN86 11-133)
# T1 construct: G3BP2, NTF2 domain; limits in Dataset EV2; source: E. coli BL21 DE (Gold), purified
# T1 sequence (looked up): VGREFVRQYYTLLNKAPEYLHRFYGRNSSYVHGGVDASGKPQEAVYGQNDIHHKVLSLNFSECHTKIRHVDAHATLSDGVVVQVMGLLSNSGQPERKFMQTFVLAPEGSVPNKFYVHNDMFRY
# protocol-details: fluorescence polarisation; displacement: unlabelled peptide titrated onto a complex of FITC-labelled peptide (10 nM) and protein domain (1-2x KD); 50 mM sodium phosphate buffer pH 7.4 (CASK: plus 100 mM NaCl); KD calculated from IC50; technical triplets
# experimental-setup: both partners purified
pKd: −log10 of the molar value.

binder	pKd
DLLTFGQAQMNFPY (BCL11A residues 44-56; also called C47F BCL11A; source: synthetic peptide, bought: Genecust) [BCL11A_(44-56) C48F peptide]	3.67
